Measured values drawn from PubChem BioAssay (Tox21) for this set.

- Tested Target: Nuclear receptor subfamily 1 group I member 3 (Homo sapiens)
- Measurement Protocol: qHTS assay to identify small molecule agonists of the constitutive androstane receptor (CAR) signaling pathway (AID 1224839); also: nearly all actives have a fitted effect of over 15% in size; also: potency is read from the fitted curve at half-maximal effect;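 as to activation: HepG2 cells stably carrying human CAR and a CYP2B6 luciferase reporter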
- Run Conditions: HepG2 hCAR CYP2B6-luciferase, agonist mode, 24 h; series mostly up to 92.4 µM
Results filed as inconclusive are left out. Active and inactive are the calls of the source. Calls follow the shape of the dose curve; as a rule, active = well fitted activation curve with a large enough effect in the repeat runs; inconclusive = weak or mixed curves; inactive = no such curve, though single readings can be large or run the other way.
Readout Type: Potency

Examples with answers:
Entry Smiles | Potency
O=C(Nc1cccc([N+](=O)[O-])c1)c1cc2ccccc2cc1O | 2.43 µM (active)
Oc1ccc2c(c1)-c1ccccc1C2 | 54.5 µM (active)
Cc1cc(CCN2CCN(c3nsc4ccccc34)CC2)cc2c1NC(=O)CC2(C)C | 21.7 µM (active)
Cc1c(C)c2c(c(C)c1OC(=O)CCC(=O)O)CC[C@@](C)(CCC[C@H](C)CCC[C@H](C)CCCC(C)C)O2 | inactive

Here is another compound to look at.
The measured Potency associated with CCCCc1oc2ccc(NS(C)(=O)=O)cc2c1C(=O)c1ccc(OCCCN(CCCC)CCCC)cc1 reads inactive

----------
- Measurement Protocol: qHTS assay to identify small molecule antagonists of the estrogen related receptor signaling pathway with the pleiotropic PPARgamma coactivator (PGC) from Tox21 10K library - cell viability counter screen (AID 1224840); also: nearly all actives have a fitted effect of over 40% in size
- Run Conditions: PGC/ERR reporter cells viability, CellTiter-Fluor, 17.5 h; series mostly up to 92.4 µM
Results filed as inconclusive are left out. The source made the active and inactive calls. The call rests on the fitted dose curve; in most records, active means well fitted cell-killing curve with a large enough effect in the repeat runs (not every such curve was filed as active); inconclusive means weak or mixed curves, or effect the other way; inactive means no such curve, though single readings can be large or run the other way.
Answer with one of the outcomes given here: YES (active), NO (inactive)

Compound | Class Name
O=c1[nH]sc2cc(Cl)ccc12 | NO
COC(=O)C1=C(C)NC(C)=C(C(=O)OCCc2ccc(N3CCN(C(c4ccccc4)c4ccccc4)CC3)cc2)C1c1cccc([N+](=O)[O-])c1 (configuration not stated) | NO
Cc1onc(-c2c(Cl)cccc2Cl)c1C(=O)N[C@@H]1C(=O)N2[C@@H]1SC(C)(C)[C@@H]2C(=O)O | NO
CCCCCCCCOC(=O)c1ccc(O)cc1 | NO
COc1ccc(-c2ccc3cc(C(=O)O)ccc3c2)cc1C12CC3CC(CC(C3)C1)C2 | NO

Asked: Kindly provide the recorded test outcome for the following compound: CCCCCCC[N+](CC)(CC)CCCCc1ccc(Cl)cc1
Given back: NO

Asked: Kindly provide the recorded test outcome for the following compound: O=C1C=CC(=O)N1c1ccc(Cc2ccc(N3C(=O)C=CC3=O)cc2)cc1
Given back: YES

Asked: Kindly provide the recorded test outcome for the following compound: CCN(C(=O)c1cc(C)cc(OC[C@H](C)Nc2ccncc2)c1)C(C)C
Given back: NO

----------
- Measurement Protocol: qHTS assay to identify small molecule HDAC inhibitors (AID 1259364);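 also: wild-type HCT-116 cells with endogenous class I/II HDAC activity; top concentration of the series differs between compounds; nearly all actives have a fitted effect of over 45% in size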
- Run Conditions: HCT-116 HDAC-Glo I/II luminescence, 2 h; series mostly up to 92.4 µM
Results filed as inconclusive are left out. Calls of active or inactive are those of the source. Calls come from the whole dose curve; as a rule, active = well fitted inhibition curve with a large enough effect in the repeat runs; inconclusive = weak or mixed curves; inactive = flat fitted curve, though single readings scatter.
Answer with one of the outcomes given here: active, inactive

Here's what some known entries look like.
Compound | Class Name
OCCN1CCN(CC/C=C2/c3ccccc3Sc3ccc(C(F)(F)F)cc32)CC1 | inactive
CCCCN1CCCC[C@H]1C(=O)Nc1c(C)cccc1C | inactive
CCCCC(CC)COC(=O)c1ccccc1C(=O)O (centres undefined) | inactive
CCCCN1C(=O)[C@@H]([C@H](O)C2CCCCC2)NC(=O)C12CCN(Cc1ccc(Oc3ccc(C(=O)O)cc3)cc1)CC2 | inactive
CCc1oc2ccccc2c1C(=O)c1cc(Br)c(O)c(Br)c1 | inactive

Asked: Kindly provide the recorded test outcome for the following compound: O=C(O)c1c(Cl)cccc1Cl
Given back: inactive

Asked: Kindly provide the recorded test outcome for the following compound: O=C(c1ccc(F)cc1)C1CCN(CCn2c(=O)[nH]c3ccccc3c2=O)CC1
Given back: inactive

Asked: Kindly provide the recorded test outcome for the following compound: CCCCCCCCCCCCCCCS(=O)(=O)Oc1ccccc1
Given back: inactive

Asked: Kindly provide the recorded test outcome for the following compound: O=c1[nH]sc2cc(Cl)ccc12
Given back: inactive

Asked: Kindly provide the recorded test outcome for the following compound: C=CC(=O)OCC(CO)(COC(=O)C=C)COC(=O)C=C
Given back: inactive

Asked: Kindly provide the recorded test outcome for the following compound: Cc1cc(N)c(S(=O)(=O)O)cc1Cl
Given back: inactive

Asked: Kindly provide the recorded test outcome for the following compound: [Cl][Bi]([Cl])([c]1ccccc1)([c]1ccccc1)[c]1ccccc1
Given back: inactive

Asked: Kindly provide the recorded test outcome for the following compound: CCOC(=O)O[C@H](C)OC(=O)c1ccc2c(c1)cc(C(=O)NC1CCN(C(C)C)CC1)n2Cc1cc(-c2ccc(Cl)s2)on1
Given back: inactive

Asked: Kindly provide the recorded test outcome for the following compound: C[C@H](CCC(=O)O)[C@H]1CC[C@H]2[C@@H]3CC[C@@H]4C[C@H](O)CC[C@]4(C)[C@H]3CC[C@]12C
Given back: inactive

Asked: Kindly provide the recorded test outcome for the following compound: C1CCCC1
Given back: inactive

Asked: Kindly provide the recorded test outcome for the following compound: COc1ccc(CN2CCN(C(c3ccc(F)cc3)c3ccc(F)cc3)CC2)c(OC)c1OC
Given back: inactive

Asked: Kindly provide the recorded test outcome for the following compound: O=C1C=CC(=O)N1
Given back: inactive

Asked: Kindly provide the recorded test outcome for the following compound: NNc1nc(-c2ccc(N)cc2)cs1
Given back: inactive

Asked: Kindly provide the recorded test outcome for the following compound: COc1cc(-c2ccc(N=C=O)c(OC)c2)ccc1N=C=O
Given back: inactive

Asked: Kindly provide the recorded test outcome for the following compound: CCCCCCCC/C=C\CCCCCCCCOCCO
Given back: inactive
